System: MCF7
Experiment: cells
Details: Homo sapiens, MCF7, 72 h
pIC50: −log10 of the molar value.
Assay readout: pIC50

Here's what some known entries look like.
| Compound | pIC50 |
| --- | --- |
| CC1=CC[C@H]2[C@H](CC[C@]2(C)O)C(C)(C)[C@@H]1CC[C@H]1[C@]2(C)CC[C@H](OC(=O)c3ccccc3F)C(C)(C)O[C@H]2CC[C@@]1(C)O | 4.95 |
| CC1=CC[C@H]2[C@H](CC[C@]2(C)O)C(C)(C)[C@@H]1CC[C@H]1[C@]2(C)CC[C@H](OC(=O)c3ccc([N+](=O)[O-])cc3)C(C)(C)O[C@H]2CC[C@@]1(C)O | 4.67 |
| CC(=O)O[C@H]1CC[C@]2(C)[C@H](CC[C@@](C)(O)[C@H]2CC[C@@H]2C(C)=CC[C@H]3[C@H](CC[C@]3(C)OC(C)=O)C2(C)C)OC1(C)C | 4.41 |
| CC1=CC[C@H]2[C@H](CC[C@]2(C)O)C(C)(C)[C@@H]1CC[C@H]1[C@]2(C)CC[C@H](OC(=O)NCc3ccccc3)C(C)(C)O[C@H]2CC[C@@]1(C)O | 4.61 |
| CC1=C(CC[C@H]2[C@]3(C)CC[C@H](O)C(C)(C)O[C@H]3CC[C@@]2(C)O)[C@](C)(C/C=C/C(C)(C)OO)[C@H](O)CC1 | 4.56 |

P = CC1=CC[C@H]2[C@@H]1CC=C(C)[C@@H](CC[C@H]1[C@]3(C)CC[C@H](OC(=O)c4ccccc4)C(C)(C)O[C@H]3CC[C@@]1(C)O)C2(C)C
Q = CC1=CC[C@H]2[C@H](CC[C@]2(C)O)C(C)(C)[C@@H]1CC[C@H]1[C@]2(C)CC[C@H](OC(=O)c3cccc(C(F)(F)F)c3)C(C)(C)O[C@H]2CC[C@@]1(C)O
R = CC1=CC[C@H]2[C@H](CC[C@]2(C)O)C(C)(C)[C@@H]1CC[C@H]1[C@]2(C)CC[C@H](OC(=O)c3ccccc3Cl)C(C)(C)O[C@H]2CC[C@@]1(C)O
Arrange the 3 compounds from largest to smallest pIC50. Rank the items, then write their labels in that order. R, P, Q
(R: 4.92, P: 4.64, Q: 4.42)

----------
Assay: Cytotoxicity against human MCF10A cells at => IC50 of antiproliferative assay after 24 hrs by MTT assay
Details: mcf-10a
Assay readout: Activity

| Molecule | Result |
| --- | --- |
| CC1=CC[C@H]2[C@H](CC[C@]2(C)O)C(C)(C)[C@@H]1CC[C@H]1[C@]2(C)CC[C@H](OC(=O)c3ccc(C(F)(F)F)cc3F)C(C)(C)O[C@H]2CC[C@@]1(C)O | Non-toxic |
| CC1=CC[C@H]2[C@H](CC[C@]2(C)O)C(C)(C)[C@@H]1CC[C@H]1[C@]2(C)CC[C@H](OC(=O)c3ccc(C(F)(F)F)c(F)c3)C(C)(C)O[C@H]2CC[C@@]1(C)O | Non-toxic |
| CC1=CC[C@H]2[C@H](CC[C@]2(C)O)C(C)(C)[C@@H]1CC[C@H]1[C@]2(C)CC[C@H](OC(=O)c3ccccc3C(F)(F)F)C(C)(C)O[C@H]2CC[C@@]1(C)O | Non-toxic |
| CC1=CC[C@H]2[C@H](CC[C@]2(C)O)C(C)(C)[C@@H]1CC[C@H]1[C@]2(C)CC[C@H](OC(=O)c3ccc(Cl)c(Cl)c3)C(C)(C)O[C@H]2CC[C@@]1(C)O | Non-toxic |
| CC1=CC[C@H]2[C@H](CC[C@]2(C)O)C(C)(C)[C@@H]1CC[C@H]1[C@]2(C)CC[C@H](OC(=O)c3ccc(F)cc3)C(C)(C)O[C@H]2CC[C@@]1(C)O | Non-toxic |
| CC1=CC[C@H]2[C@H](CC[C@]2(C)O)C(C)(C)[C@@H]1CC[C@H]1[C@]2(C)CC[C@H](OC(=O)c3ccc([N+](=O)[O-])cc3)C(C)(C)O[C@H]2CC[C@@]1(C)O | Non-toxic |
| CC1=CC[C@H]2[C@H](CC[C@]2(C)O)C(C)(C)[C@@H]1CC[C@H]1[C@]2(C)CC[C@H](OC(=O)c3ccccc3Cl)C(C)(C)O[C@H]2CC[C@@]1(C)O | Non-toxic |
| CC1=CC[C@H]2[C@H](CC[C@]2(C)O)C(C)(C)[C@@H]1CC[C@H]1[C@]2(C)CC[C@H](OC(=O)c3cccc([N+](=O)[O-])c3)C(C)(C)O[C@H]2CC[C@@]1(C)O | Non-toxic |
| CC1=CC[C@H]2[C@H](CC[C@]2(C)O)C(C)(C)[C@@H]1CC[C@H]1[C@]2(C)CC[C@H](OC(=O)c3ccccc3[N+](=O)[O-])C(C)(C)O[C@H]2CC[C@@]1(C)O | Non-toxic |

Now for the compound whose Activity we want.
Please report the recorded Activity for CC1=CC[C@H]2[C@H](CC[C@]2(C)O)C(C)(C)[C@@H]1CC[C@H]1[C@]2(C)CC[C@H](OC(=O)c3cccc(C(F)(F)F)c3)C(C)(C)O[C@H]2CC[C@@]1(C)O . Non-toxic
